- Test system: NCI-H23 lung
- PROCEDURE_TEXT: NCI tumour cell line growth inhibition, 48 h; in the data active = GI50 below about 0.43 µM; inactive = the rest
Can you answer with just one of these options? active, inactive

Use these answered entries as a reference point.
CN1CCN(Cc2ccc(NC(=O)c3cncc(C#Cc4cnc5ccc(N[C@H]6CCOC6)nn45)c3)cc2C(F)(F)F)CC1 active
Cn1cc(-c2cc3nc(-c4cn(C)c5ncc(Br)cc45)cc(N)n3n2)c2ccccc21 inactive
CN1CCN(Cc2ccc(C(=O)Nc3cccc(Nc4ccc5c(O)cccc5n4)c3)cc2C(F)(F)F)CC1 inactive

Now, please, on to the next molecule.
Call for entry COc1cccc(-c2ccc(/C=N/NC(=O)c3[nH]c4ccc(Br)cc4c3-c3ccccc3)s2)c1 :
inactive

###

- System: MDA-MB-468 breast
- PROCEDURE_TEXT: NCI tumour cell line growth inhibition, 48 h
Parameter: TGI. Scope: all listed entries.
Give the number; µM is assumed, so skip it.

Example cases with answers are listed next.
COMPOUND	TGI [µM]
CN1CCN(Cc2ccc(NC(=O)c3cncc(C#Cc4cnc5ccc(N[C@H]6CCOC6)nn45)c3)cc2C(F)(F)F)CC1	0.211
O=C(CO[N+](=O)[O-])Nc1ccc(C(=O)/C=C/c2ccc(Cl)cc2)cc1	5.07
CC[N+](CC)=c1sc2c(s1)C(c1ccc(Cl)cc1)Oc1ccc(Cl)cc1-2 (stereo unspecified)	4.12

Read the next record carefully.
Query (compound): CCOC(=O)N1CCN(c2nc(Nc3cc(C)[nH]n3)c3ccccc3n2)CC1 ; field requested: TGI
8.42

###

- Test system: MDA-MB-468 breast
- PROCEDURE_TEXT: NCI tumour cell line growth inhibition, 48 h; in the data active means GI50 below about 0.43 µM; inactive means the rest
Can you answer with just one of these options? active, inactive

Call for entry COc1ccc(C(=O)/C=C/c2ccc(C)cc2)cc1OC :
inactive

Call for entry COC(=O)c1c2c(c[n+]([O-])c1C)C(=O)C=CC2=O :
inactive

Call for entry COc1cccc(-c2ccc(/C=N/NC(=O)c3[nH]c4ccc(Br)cc4c3-c3ccccc3)s2)c1 :
inactive

Call for entry COc1cc(OC)cc(N(CCNC(C)C)c2ccc3ncc(-c4cnn(C)c4)nc3c2)c1 :
inactive

Call for entry COC(=O)[C@@H](C)C[C@H](Cc1ccccc1)NC(=O)c1csc(CC[C@H](C(C)C)N(C)C(=O)[C@@H](NC(=O)[C@H]2CCCCN2C)C(C)C)n1 :
active

Call for entry COc1cccc(-c2cc(=O)c3cc(OC)ccc3[nH]2)c1 :
inactive

Call for entry Nc1ccc(C2=NN(c3ccccc3)C(c3ccc(Cl)cc3)C2)cc1 (stereo not given) :
inactive

Call for entry Cc1nn(-c2nc3ccccc3[nH]2)c(N)c1-c1ccc(Cl)cc1 :
inactive

Call for entry Cc1ccc(-c2csc(/N=C3\C(=O)Nc4ccccc43)n2)cc1 :
inactive

Call for entry O=C(CO[N+](=O)[O-])Nc1ccc(C(=O)/C=C/c2ccc(Cl)cc2)cc1 :
inactive

###

- Test system: MDA-MB-468 breast
- PROCEDURE_TEXT: NCI tumour cell line growth inhibition, 48 h
Parameter: log10(TGI). Scope: all listed entries.
Record value = log10 of TGI given in µM.

Example cases with answers are listed next.
Cn1cc(-c2cc3nc(-c4cn(C)c5ncc(Br)cc45)cc(N)n3n2)c2ccccc21 1.19
COc1cc(/C=C2\C(=O)Nc3cc(C)c(O)cc32)cc(OC)c1OC 0.77
OCc1ccc(-c2ccc(-c3ccc(CO)o3)[se]2)o1 -0.15
COC(=O)CCc1c[nH]c2ccc(N(CCCl)CCCl)cc12 0.26

Query (molecule): C#CCOc1cccc(-c2ncnc3cc(NC(=O)CCl)ccc23)c1 ; field requested: log10(TGI)
0.55

Query (molecule): CCCNNC(=O)/C=C/c1ccc(CNCCc2c(C)[nH]c3ccccc23)cc1 ; field requested: log10(TGI)
-0.28
